Tested on: EKVX NSCLC
Experiment description: NCI tumour cell line growth inhibition, 48 h

Molecule: O=C1Nc2ccc3c(c2/C1=C\c1cc2c(cc1Br)OCO2)OCO3
System name: EKVX NSCLC
GI50: 0.639 µM
--
Molecule: COc1cccc(-c2nc3sccn3c2-c2ccnc(NCCCNS(=O)(=O)c3ccccc3)c2)c1
System name: EKVX NSCLC
GI50: 3.68 µM
--
Molecule: COc1cc(NC2CCCCC2O)c2nc(-c3ccc(Cl)cc3)ccc2c1 (stereo not drawn)
System name: EKVX NSCLC
GI50: 18.1 µM
--
Molecule: C[C@@H]1CCc2ncc(F)cc2[C@H]2CCCN2c2ccn3ncc(c3n2)C(=O)N1
System name: EKVX NSCLC
GI50: 48.8 µM
--
Molecule: COc1cc2c3c(n(CCCNCCCNCCCN)c(=O)c2cc1OC)-c1cc2c(cc1C3=O)OCO2
System name: EKVX NSCLC
GI50: > 100 µM
--
Molecule: C#C[C@]1(O)CC[C@H]2[C@@H]3CC=C4c5nc(N)sc5CC[C@]4(C)[C@H]3CC[C@@]21C
System name: EKVX NSCLC
GI50: 5.47 µM
--
Molecule: Cc1cc(NN=C(c2ccc(O)cc2)c2ccc(O)cc2)c([N+](=O)[O-])cc1[N+](=O)[O-]
System name: EKVX NSCLC
GI50: 4.54 µM
--
Molecule: COc1ccc(-c2csc(Nc3cccc(-c4csc(C)n4)c3)n2)cc1
System name: EKVX NSCLC
GI50: 3.63 µM
--
Molecule: CCCCCCCCCCCCCCCC[n+]1ccccc1
System name: EKVX NSCLC
GI50: 0.453 µM
--
Molecule: CN(C)c1ccc(C(O)C2=CC(=O)c3ccccc3C2=O)cc1 (stereo not drawn)
System name: EKVX NSCLC
GI50: 5.37 µM
--
Molecule: NC(=O)/C(=C/n1cnc(-c2cc(C(F)(F)F)cc(C(F)(F)F)c2)n1)c1cncnc1
System name: EKVX NSCLC
GI50: 0.566 µM
--
Molecule: CCCCCC[C@H]1C(=O)O[C@H](C)[C@H](NC(=O)c2cccc(NC=O)c2OC)C(=O)O[C@@H](C)[C@@H]1OC(=O)CCC (tested in a mixture with another compound)
System name: EKVX NSCLC
GI50: 6 µM
--
Molecule: CCOC(=O)/C(=C\c1ccc2ccccc2c1)P(=O)(OCC)OCC
System name: EKVX NSCLC
GI50: 4.28 µM

====

Test system: UACC-257 melanoma
Experiment description: NCI tumour cell line growth inhibition, 48 h
Recorded endpoint: log10(TGI) (log10 of the value in µM)

Compound: COc1cc2cc(C(=O)N3CC(CCl)c4ccc([N+](C)(C)Cc5ccccc5[N+](=O)[O-])cc43)[nH]c2c(OC)c1OC (stereo unspecified)
log10(TGI): 0.83
--
Compound: COC(=O)c1ccc2c(c1)CC1(C2)Cc2ccccc2C1=O (stereo unspecified)
log10(TGI): 1.55
--
Compound: CCCc1nc2c(n1CC)C(=O)c1ccccc1C2=O
log10(TGI): 1.66
--
Compound: O=C1CSC(c2ccccc2O)N1c1ccc(-n2c(-c3ccccc3)nc3ccccc3c2=O)cc1 (stereo unspecified)
log10(TGI): 1.91
--
Compound: CCOC(=O)c1c(CN2CCN(C)CC2)nc2ccc(Cl)cc2c1-c1ccccc1
log10(TGI): 0.60

====

System: MOLT-4 leukemia
Experiment description: NCI tumour cell line growth inhibition, 48 h
# reported TGI; entries follow

Molecule: COC(=O)c1c(O)ccc2c1c1c(n2Cc2cc(OC)cc(OC)c2)C(=O)c2ccccc2C1=O
System name: MOLT-4 leukemia
TGI: 73.3 µM
//
Molecule: O=C(Nc1ccccc1)Oc1ccc(C(=S)Nc2ccc(Br)cc2)cc1
System name: MOLT-4 leukemia
TGI: 66.2 µM
//
Molecule: Cc1ccc(S(=O)(=O)N/N=C2/CCC3(O)CC2(C)CCC2[C@H]3CC2(C)C)cc1 (stereo not given in full)
System name: MOLT-4 leukemia
TGI: 45.2 µM
//
Molecule: Oc1ccccc1C=Nc1ccc(-c2nc3ccccc3s2)cc1
System name: MOLT-4 leukemia
TGI: > 100 µM
//
Molecule: Cc1cn(C2CC(N=[N+]=[N-])C(COP(=O)(O)OCC3OC(n4cc(F)c(=O)[nH]c4=O)CC3O)O2)c(=O)[nH]c1=O (stereo not given)
System name: MOLT-4 leukemia
TGI: > 37.2 µM
//
Molecule: Cc1c(-c2ccccc2)[nH]c2cn[nH]c(=O)c12
System name: MOLT-4 leukemia
TGI: > 100 µM
//
Molecule: O=CN1N=C(c2cccc(Nc3ccnc4cc(Cl)ccc34)c2)CC1c1ccc(Cl)cc1 (stereo not given)
System name: MOLT-4 leukemia
TGI: 80.3 µM
//
Molecule: Cc1cc(NS(=O)(=O)c2ccc(N=[N+]([O-])c3ccc(S(=O)(=O)Nc4cc(C)on4)cc3)cc2)no1
System name: MOLT-4 leukemia
TGI: > 100 µM
//
Molecule: CCCCOC/N=C(/N)NC#N
System name: MOLT-4 leukemia
TGI: > 100 µM
//
Molecule: O=CNc1ccccc1OCCOc1ccccc1NC=O
System name: MOLT-4 leukemia
TGI: > 100 µM
//
Molecule: COc1cccc(-c2nc3sccn3c2-c2ccnc(NCCCNS(=O)(=O)c3ccccc3)c2)c1
System name: MOLT-4 leukemia
TGI: 7.04 µM
//
Molecule: CC(=O)Oc1cc2cnc3c4cc(OC(C)=O)c(OC(C)=O)cc4ccc3c2cc1OC(C)=O
System name: MOLT-4 leukemia
TGI: > 100 µM
//
Molecule: Cc1ccc(C2CC(c3ccc(Nc4ccnc5cc(Cl)ccc45)cc3)=NN2C=O)cc1 (stereo not given)
System name: MOLT-4 leukemia
TGI: > 100 µM
//
Molecule: O=C1OC([C@H](O)c2cccnc2)c2ccccc21 (stereo not given in full)
System name: MOLT-4 leukemia
TGI: > 10 µM
//
Molecule: COc1ccccc1-c1c(C#N)c(N)[nH]c(=S)c1C#N
System name: MOLT-4 leukemia
TGI: > 100 µM
//
Molecule: CCOC(=O)c1nc2ccc(C(F)(F)F)cc2nc1Nc1ccc(OC)cc1
System name: MOLT-4 leukemia
TGI: > 100 µM
//
Molecule: O=c1c(Sc2c(SCSc3cnc4ccccc4c3Sc3c[nH]c4ccccc4c3=O)cnc3ccccc23)c[nH]c2ccccc12
System name: MOLT-4 leukemia
TGI: > 100 µM
//
Molecule: Cc1c(/C=N/NC(=S)N2CCCCC2)c(=O)n(-c2ccccc2)n1C
System name: MOLT-4 leukemia
TGI: > 100 µM
//
Molecule: COc1cc(OC)c2c(=O)c3cccc(C)c3n(C)c2c1
System name: MOLT-4 leukemia
TGI: > 100 µM
//
Molecule: O=[N+]([O-])c1cccc2nccc(NCCN3CCOCC3)c12
System name: MOLT-4 leukemia
TGI: > 56.5 µM
//
Molecule: COc1ccc(Br)c(C(=O)N2CCc3ccccc32)c1N
System name: MOLT-4 leukemia
TGI: > 100 µM
//
Molecule: CC(C)[C@H]1NC(=O)[C@H]2N=C(S[C@H]2C)[C@@H]2CCCN2C(=O)[C@H](Cc2ccccc2)NC(=O)[C@@H]2CSC(=N2)[C@@H](Cc2ccccc2)NC(=O)[C@@H]2CSC1=N2
System name: MOLT-4 leukemia
TGI: 29.5 µM
//
Molecule: Cc1cc(C)nc(NS(=O)(=O)c2ccc(Nc3c4ccccc4nc4c(C(=O)NCCN(C)C)cccc34)cc2)n1
System name: MOLT-4 leukemia
TGI: 1.61 µM
//
Molecule: COc1ccccc1NC(=O)C1=C(C)NC(C)=C(C(=O)Nc2ccccc2OC)C1c1ccco1
System name: MOLT-4 leukemia
TGI: 52.7 µM
//
Molecule: C1CSCC2(COC2)CSCCSCC2(COC2)CS1
System name: MOLT-4 leukemia
TGI: > 100 µM
//
Molecule: O=[N+]([O-])/C=C/c1ccc(Cl)cc1[N+](=O)[O-]
System name: MOLT-4 leukemia
TGI: 12.6 µM
//
Molecule: C[C@@H]1CCc2ncc(F)cc2[C@H]2CCCN2c2ccn3ncc(c3n2)C(=O)N1
System name: MOLT-4 leukemia
TGI: > 100 µM
//
Molecule: CCOc1nc2c(N3CCCC3)nc(N3CCNCC3)nc2nc1NCc1ccccc1
System name: MOLT-4 leukemia
TGI: 2.8 µM
//
Molecule: COc1cc(NC2CCCCC2O)c2nc(-c3ccc(Cl)cc3)ccc2c1 (stereo not given)
System name: MOLT-4 leukemia
TGI: 46.6 µM
//
Molecule: Nc1ccccc1C(=O)N=Nc1c(O)[nH]c2ccccc12
System name: MOLT-4 leukemia
TGI: > 100 µM
//
Molecule: CC(C)[Si]1(C(C)C)OCC2OC(n3ccc(=O)[nH]c3=O)C([Se]c3ccccc3)C2O[Si](C(C)C)(C(C)C)O1 (stereo not given)
System name: MOLT-4 leukemia
TGI: > 22.9 µM
//
Molecule: CCCc1nc2c(n1CC)C(=O)c1ccccc1C2=O
System name: MOLT-4 leukemia
TGI: > 100 µM
//
Molecule: C=C1C[C@@H]2O[C@H]3[C@H]4[C@@H](CC[C@@](C)(OC(=O)CCC)[C@H]42)[C@@H](C)C(=O)O[C@@]3(C)CC[C@H]1OO
System name: MOLT-4 leukemia
TGI: 23 µM
//
Molecule: Cc1sc2nc3n(c(=O)c2c1C)N=CN(c1ccc(Cl)cc1)C3
System name: MOLT-4 leukemia
TGI: > 100 µM
//
Molecule: CC(O)[C@H](NC(=O)N[C@@H](CC(N)=O)c1nc(N2CCNCC2)no1)C(=O)O (stereo not given in full)
System name: MOLT-4 leukemia
TGI: > 100 µM
//
Molecule: Cc1ccc(-c2cc(-c3ccccc3)c(C#N)c(=O)[nH]2)cc1
System name: MOLT-4 leukemia
TGI: > 100 µM
//
Molecule: Cc1cc(S(N)(=O)=O)c(S/C(=N\NS(=O)(=O)c2ccccc2)c2ccc(Cl)cc2)cc1Cl
System name: MOLT-4 leukemia
TGI: > 100 µM
//
Molecule: CC(=O)N1C(Nc2nccs2)CCN1c1ccccc1 (stereo not given)
System name: MOLT-4 leukemia
TGI: > 10 µM
//
Molecule: CS(=O)(=O)Nc1cc(-c2ccc3ncnc(Nc4cccc(Cl)c4)c3c2)cnc1Cl
System name: MOLT-4 leukemia
TGI: 1.17 µM
//
Molecule: Clc1ccc(CN2CCCN(Cc3ccc(Cl)cc3)C2c2cc3ccccc3c3ccccc23)cc1
System name: MOLT-4 leukemia
TGI: > 100 µM
